- Test system: SK N MC cells
- Assay Comment: SK N MC cell proliferation assay after sorting to NCAM+/-
- Type: cell-based
- Test Context: SK N MC cells unsorted
Measure Name: IC50 (nM)
Only the number, expressed in nM, is required.

### Prompt # input compound: COc1cccc2c1C(=O)c1c(O)c3c(c(O)c1C2=O)C[C@@](O)(C(=O)CO)C[C@@H]3O[C@H]1C[C@H](N)[C@H](O)[C@H](C)O1 ; wanted: its IC50
### Response 50
